target: huPD-L1 (Homo sapiens, UniProt Q9NZQ7); assay: Flow binding to CHO cells stably expressing PD-L1; parameters: huCTLA4 and huPD-L1, full-length mammalian surface expression constructs were generated; expressed in transfected cells; host or cells: CHO cells, lentiviral transduction, sorted to >98% purity; details: Table E11; CHO cells stably expressing PD-L1; 33.3 nM
Sequence (Q9NZQ7 19-290): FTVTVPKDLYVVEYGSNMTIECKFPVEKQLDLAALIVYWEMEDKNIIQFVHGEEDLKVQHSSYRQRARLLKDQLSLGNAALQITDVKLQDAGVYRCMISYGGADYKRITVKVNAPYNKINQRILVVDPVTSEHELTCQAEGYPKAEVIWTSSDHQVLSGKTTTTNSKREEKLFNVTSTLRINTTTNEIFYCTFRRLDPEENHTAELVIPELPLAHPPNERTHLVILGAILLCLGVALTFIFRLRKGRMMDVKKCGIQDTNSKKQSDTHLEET
A collection of molecules and their measured PD-L1 MFI at 33.3 nM
measurement_name: PD-L1 MFI at 33.3 nM

* H18Y/E35D/V68M/L85M/R94Q (protein, UniProt P33681 35-288, looked up, variant H18Y E35D V68M L85M R94Q) T-lymphocyte activation …: VIHVTKEVKEVATLSCGYNVSVEELAQTRIYWQKDKKMVLTMMSGDMNIWPEYKNRTIFDITNNLSIMILALRPSDEGTYECVVMKYEKDAFKQEHLAEVTLSVKADFPTPSISDFEIPTSNIRRIICSTSGGFPEPHLSWLENGEELNAINTTVSQDPETELYAVSSKLDFNMTTNHSFMCLIKYGHLRVNQTFNWNTTKQEHFPDNLLPSWAITLISVNGIFVICCLTYCFAPRCRERRRNERLRRESVRPV | 14410
* Q33R/E35D/M38I/M47L/V68M (protein, UniProt P33681 35-288, looked up, variant Q33R E35D M38I M47L V68M) T-lymphocyte activation …: VIHVTKEVKEVATLSCGHNVSVEELAQTRIYWRKDKKIVLTMMSGDLNIWPEYKNRTIFDITNNLSIMILALRPSDEGTYECVVLKYEKDAFKREHLAEVTLSVKADFPTPSISDFEIPTSNIRRIICSTSGGFPEPHLSWLENGEELNAINTTVSQDPETELYAVSSKLDFNMTTNHSFMCLIKYGHLRVNQTFNWNTTKQEHFPDNLLPSWAITLISVNGIFVICCLTYCFAPRCRERRRNERLRRESVRPV | 16502

The reported measurements were obtained from patent US20220177587A1.
